Test system: MCF-7
protocol description: MTT cell viability assay, MCF-7 cells
Assay type: cell-based
condition summary: Homo sapiens, MCF7, 48 h drug exposure
Field: IC50. Provide a value for each of the molecules that follow.
One number for each entry, in µM.

given smiles	units symbol	IC50
NS(=O)(=O)c1ccc(N2Cc3ccccc3OC3=C2C(=O)c2c(O)ccc(O)c2C3=O)cc1	µM	2.52

State recorded IC50 for all listed molecules.
1. NC(=O)c1cccc(N2Cc3cc(Cl)ccc3OC3=C2C(=O)c2c(O)ccc(O)c2C3=O)c1
2. NC(=O)c1ccc(N2Cc3ccccc3OC3=C2C(=O)c2ccccc2C3=O)cc1
3. N#Cc1ccc(N2Cc3ccccc3OC3=C2C(=O)c2ccccc2C3=O)cc1
4. N#Cc1cccc(N2Cc3ccccc3OC3=C2C(=O)c2c(O)ccc(O)c2C3=O)c1
5. COc1ccc(O)c2c1C(=O)C1=C(Oc3ccccc3CN1c1ccccc1)C2=O
6. CN(C)c1ccc(N2Cc3ccccc3OC3=C2C(=O)c2ccccc2C3=O)cn1
7. O=C1C2=C(C(=O)c3ccccc31)N(c1cccnc1)Cc1ccccc1O2
8. NC(=O)c1ccc(N2Cc3ccccc3OC3=C2C(=O)c2c(O)ccc(O)c2C3=O)cc1

Reply:
0.97
5.91
4.22
1.15
3.98
3.54
5.12
1.85

====

Tested on: MDA-MB-231
protocol description: MTT cell viability assay, MDA-MB-231 cells
Type: cell-based, human
condition summary: 48 h drug exposure
attribute measured: IC50 (µM)
One number for each entry, in µM.

compound	target under test	units symbol	IC50
CC(=O)Oc1ccc(OC(C)=O)c2c1C(=O)C1=C(Oc3ccccc3C(c3ccc(N(C)C)nc3)N1)C2=O (centres unmarked) [Compound 95]	MDA-MB-231	µM	0.15

Next compound, please.
Task item: Provide the documented IC50 with MDA-MB-231 as the system for CC(=O)Oc1ccc(OC(C)=O)c2c1C(=O)C1=C(Oc3ccccc3C(c3ccc(N4CCOCC4)nc3)N1)C2=O (centres unmarked) [Compound 96]
Reply: 0.13

====

System: MCF-7
protocol description: MTT cell viability assay, MCF-7 cells
Format: cell-based
condition summary: Homo sapiens, MCF7, 48 h drug exposure
Procedure: Cell viability was assayed by measuring the mitochondrial reduction of the tetrazolium salt 3-(4,5-methyltiazol-2yl)-2,5diphenyl-tetrazolium bromide] (MTT) (Applichen; A2231,0010) [Mosmann T. J Immunol Methods. […] The optical density was measured at 595 nm with the iMark Microplate Reader (BioRad, USA). Data was expressed as percent growth above the level in controls and the results in figures were plotted as means ± SEM of each test point from 3 replicates. […]
attribute measured: IC50 (µM)
One number for each entry, in µM.

given smiles	IC50 / µM
COc1ccc2c(c1)OC1=C(C(=O)c3c(O)ccc(O)c3C1=O)N(C(=O)c1ccc(C#N)cc1)C2	2.75
COc1cccc2c1OC1=C(C(=O)c3c(O)ccc(O)c3C1=O)N(c1ccc(C#N)cc1)C2	3.17
COc1ccc(O)c2c1C(=O)C1=C(C2=O)N(c2cccc(C#N)c2)Cc2ccccc2O1	2.34
CN(C)c1ccc(N2Cc3ccccc3OC3=C2C(=O)c2c(O)ccc(O)c2C3=O)cn1	3
NC(=O)c1ccc(N2Cc3cc(F)ccc3OC3=C2C(=O)c2c(O)ccc(O)c2C3=O)cc1	3.45
CN(C)c1ccc(N2Cc3ccccc3OC3=C2C(=O)c2cccc(O)c2C3=O)cn1	1.74
N#Cc1ccc(N2Cc3ccccc3OC3=C2C(=O)c2c(O)ccc(O)c2C3=O)cc1	2.59
NC(=O)c1ccc(N2Cc3cc(Cl)ccc3OC3=C2C(=O)c2c(O)ccc(O)c2C3=O)cc1	1.53

State recorded IC50 for all listed molecules.
1. N#Cc1ccc(N2Cc3ccccc3OC3=C2C(=O)c2cccc(O)c2C3=O)cc1
2. O=C1C2=C(Oc3ccccc3CN2c2ccc(N3CCOCC3)nc2)C(=O)c2c(O)cccc21
3. COc1ccc(OC)c2c1C(=O)C1=C(C2=O)N(c2cccnc2)Cc2ccccc2O1
4. NS(=O)(=O)c1ccc(N2Cc3cc(F)ccc3OC3=C2C(=O)c2c(O)ccc(O)c2C3=O)cc1

Reply:
2.36
1.82
2.57
3.23

State recorded IC50 for all listed molecules.
1. CN(C)CCNc1ccc(N2Cc3ccccc3OC3=C2C(=O)c2ccccc2C3=O)cn1
2. N#Cc1cccc(N2Cc3cc(Cl)ccc3OC3=C2C(=O)c2c(O)ccc(O)c2C3=O)c1
3. CN1CCN(c2ccc(N3Cc4ccccc4OC4=C3C(=O)c3ccccc3C4=O)cn2)CC1
4. NS(=O)(=O)c1ccc(N2Cc3ccccc3OC3=C2C(=O)c2ccccc2C3=O)cc1
5. NC(=O)c1cccc(N2Cc3ccccc3OC3=C2C(=O)c2c(O)ccc(O)c2C3=O)c1

Reply:
[2.27, 1.3, 1.95, 7.9, 1.28]
